Tested on: Mus musculus
Assay: Analgesic activity in po dosed CF-1 mouse assessed as reduction in phenylquinone-induced writhing responses administered 15 mins prior to phenylquinone challenge
Format: functional
Settings: Mus musculus, CF-1, po; read-out: ED50
property-measured: ED50 (mg/kg)

INSERT INTO measurements (molecule, test_target, property_measured, unit_label, inequality_sign, measurement) VALUES
  ('N#Cc1ccc(C(=O)/N=C2\NC3(CCCCO3)CCS2)cc1 (stereo unspecified)', 'Mus musculus', 'ED50', 'mg/kg', '=', 60),
  ('NC1=NC2(CCCCO2)CCC1.O=C(O)/C=C\C(=O)O (racemic)', 'Mus musculus', 'ED50', 'mg/kg', '>', 200),
  ('Cl.O=C(/C=C/c1ccccc1)/N=C1\NC2(CCCCO2)CCS1 (stereo unspecified)', 'Mus musculus', 'ED50', 'mg/kg', '=', 17),
  ('c1ccc(CNC2=NC3(CCCCO3)CCS2)cc1 (racemic)', 'Mus musculus', 'ED50', 'mg/kg', '>', 200),
  ('CC(=O)/N=C1\NC2(CCCCO2)CCS1 (stereo unspecified)', 'Mus musculus', 'ED50', 'mg/kg', '=', 3.1),
  ('O=C(/N=C1\NC2(CCCCO2)CCS1)c1ccccc1Cl (stereo unspecified)', 'Mus musculus', 'ED50', 'mg/kg', '>', 200),
  ('COc1cc(C(=O)/N=C2\NC3(CCCCO3)CCS2)cc(OC)c1OC (stereo unspecified)', 'Mus musculus', 'ED50', 'mg/kg', '>', 200),
  ('O=C(/N=C1\NC2(CCCCO2)CCS1)Nc1ccccc1 (racemic)', 'Mus musculus', 'ED50', 'mg/kg', '>', 200),
  ('O=C(/N=C1\NC2(CCCCO2)CCS1)c1cccc2ccccc12 (stereo unspecified)', 'Mus musculus', 'ED50', 'mg/kg', '>', 200),
  ('NC1=NC2(CCCO2)CCS1.O=C(O)/C=C\C(=O)O (racemic)', 'Mus musculus', 'ED50', 'mg/kg', '=', 15),
  ('S=C(/N=C1\NC2(CCCCO2)CCS1)Nc1ccccc1 (racemic)', 'Mus musculus', 'ED50', 'mg/kg', '=', 200);

* * *

Assay: Retardation factor of the compound using benzene-ethyl acetate at ratio of 1:1 as solvent system by thin layer chromatography
Type: physicochemical
Tick 1 if Rf is 0.4 or greater. Tick -1 if Rf is less than 0.4.

INSERT INTO assay_data (compound, class_assignment) VALUES
  ('O=C(/N=C1\NCCCS1)c1ccc(F)cc1', -1),
  ('c1ccc(/N=C2\NC3(CCCCO3)CCS2)cc1 (racemic)', 1),
  ('c1ccc(CNC2=NC3(CCCCO3)CCS2)cc1 (racemic)', -1),
  ('CC(=O)N(Cc1ccccc1)C1=NC2(CCCCO2)CCS1 (stereo not given)', -1),
  ('O=C(/N=C1\SCCCN1C(=O)c1ccc(F)cc1)c1ccc(F)cc1', 1);

* * *

Experiment: Acute toxicity in ip dosed CF-1S mouse assessed as mortality measured for 24 hrs
Type: organism-based
Details: in vivo
The entries below are paired with their reported LD50 at 24 h.
property-measured: LD50 at 24 h

INSERT INTO measurements (compound, measurement) VALUES
  ('Cc1ccc(C(=O)/N=C2\NC3(CCCCO3)CCS2)cc1 (stereo not drawn)', '> 400 mg/kg'),
  ('O=C(/N=C1\NC2(CCCCO2)CCS1)c1ccc(F)cc1 (stereo in doubt; 33)', '1370 mg/kg'),
  ('NC1=NC2(CCCCO2)CCS1.O=C(O)/C=C\C(=O)O (racemic)', '33 mg/kg');

* * *

log10 ED50 values for the compounds below.
Test system: Mus musculus
Experiment: Analgesic activity in po dosed CF-1 mouse assessed as reduction in phenylquinone-induced writhing responses administered 15 mins prior to phenylquinone challenge
Assay type: functional
Settings: Mus musculus, CF-1, po; read-out: ED50
property-measured: log10 ED50 (log10 of the value in mg/kg)

INSERT INTO assay_data (compound, measurement) VALUES
  ('O=C(/N=C1\NC2(CCCCO2)CCS1)c1ccccc1 (stereo not given)', 0.70),
  ('O=C(/N=C1\NC2(CCCCO2)CCS1)c1ccc(Cl)cc1 (stereo not given)', 0.04),
  ('Cl.O=C(/N=C1\NC2(CCCO2)CCS1)c1ccc(F)cc1 (stereo not given)', 1.17),
  ('CN1CC[C@]23c4c5ccc(O)c4O[C@H]2[C@@H](O)C=C[C@H]3[C@H]1C5.CN1CC[C@]23c4c5ccc(O)c4O[C@H]2[C@@H](O)C=C[C@H]3[C@H]1C5.O=S(=O)(O)O', 0.68),
  ('O=C(/N=C1\NC2(CCCCO2)CCS1)c1ccco1 (stereo not given)', 1.62),
  ('CC(C)(C)C(=O)/N=C1\NC2(CCCCO2)CCS1 (stereo not given)', 2.30),
  ('NC1=NC2(CCCCO2)CCS1.O=C(O)/C=C\C(=O)O (racemic)', 0.56),
  ('COc1ccc2c3c1O[C@H]1[C@@H](O)C=C[C@H]4[C@@H](C2)N(C)CC[C@@]341.COc1ccc2c3c1O[C@H]1[C@@H](O)C=C[C@H]4[C@@H](C2)N(C)CC[C@@]341.O.O=P(O)(O)O.O=P(O)(O)O [CODEINE PHOSPHATE]', 1.26),
  ('O=C1c2ccccc2C(=O)N1C1=NC2(CCCCO2)CCS1 (racemic)', 1.17),
  ('CC1CCCC2(CCSC(N)=N2)O1.O=C(O)/C=C\C(=O)O (stereo not given)', 1.40),
  ('COc1ccc(C(=O)/N=C2\NC3(CCCCO3)CCS2)cc1 (stereo not given)', 1.79),
  ('COc1ccc(C(=O)/N=C2\NC3(CCCCO3)CCS2)cc1OC (stereo not given)', 2.30),
  ('CC(=O)Oc1ccccc1C(=O)O', 1.91),
  ('CCC(=O)O[C@](Cc1ccccc1)(c1ccccc1)[C@H](C)CN(C)C', 1.68),
  ('CNC1=NC2(CCCCO2)CCS1 (racemic)', 1.72),
  ('NC1=NC2(CCCCC2)CCS1.O=C(O)/C=C\C(=O)O', 0.82),
  ('O=C(/N=C1\NC2(CCCCO2)CCS1)c1cccs1 (stereo not given)', 1.68),
  ('NC1=NC2(CCCC(c3ccccc3)O2)CCS1.O=C(O)/C=C\C(=O)O (stereo not given)', 1.81),
  ('Cc1ccc(C(=O)/N=C2\NC3(CCCCO3)CCS2)cc1 (stereo not given)', 1.78),
  ('O=C(/N=C1\NC2(CCCCO2)CCS1)c1ccc([N+](=O)[O-])cc1 (stereo not given)', 1.45),
  ('CCCCC1C(=O)N(c2ccccc2)N(c2ccccc2)C1=O', 1.65),
  ('COc1ccc2c(c1)c(CC(=O)O)c(C)n2C(=O)c1ccc(Cl)cc1', 0.94),
  ('O=C(/N=C1\NC2(CCCCO2)CCS1)c1cccc(F)c1 (stereo not given)', 0.96);

* * *

ED50 for assorted compounds
Tested on: Mus musculus
Test: Analgesic activity in po dosed CF-1 mouse assessed as reduction in phenylquinone-induced writhing responses administered 15 mins prior to phenylquinone challenge
Assay type: functional
Details: Mus musculus, CF-1, po; read-out: ED50
property-measured: ED50

INSERT INTO measurements (compound, test_target, measurement) VALUES
  ('O=C(/N=C1\NC2(CCCCO2)CCS1)c1cccc(C(F)(F)F)c1 (configuration not stated)', 'Mus musculus', '> 200 mg/kg'),
  ('O=C(/N=C1\NCCCS1)c1ccc(F)cc1', 'Mus musculus', '> 100 mg/kg'),
  ('O=C(/N=C1\NC2(CCCCO2)CCS1)c1ccc(Br)cc1 (configuration not stated)', 'Mus musculus', '> 200 mg/kg'),
  ('CC1(C(=O)/N=C2\NC3(CCCCO3)CCS2)CCCCC1 (configuration not stated)', 'Mus musculus', '> 200 mg/kg'),
  ('O=C(/N=C1\NC2(CCCCO2)CCS1)c1cccc([N+](=O)[O-])c1 (configuration not stated)', 'Mus musculus', '> 200 mg/kg'),
  ('O=C(/N=C1\NC2(CCCCO2)CCS1)C12CC3CC(CC(C3)C1)C2 (configuration not stated)', 'Mus musculus', '> 200 mg/kg'),
  ('O=C(/N=C1\NC2(CCCCO2)CCS1)c1ccccc1O (configuration not stated)', 'Mus musculus', '> 200 mg/kg'),
  ('O=C(/N=C1\NC2(CCCCC2)CCS1)c1ccc(F)cc1', 'Mus musculus', '> 200 mg/kg'),
  ('c1ccc(/N=C2\NC3(CCCCO3)CCS2)cc1 (racemic)', 'Mus musculus', '> 200 mg/kg'),
  ('Cl.c1ccc(C2=NC3(CCCCO3)CCS2)cc1 (racemic)', 'Mus musculus', '> 200 mg/kg'),
  ('COc1cccc(OC)c1C(=O)/N=C1\NC2(CCCCO2)CCS1 (configuration not stated)', 'Mus musculus', '> 200 mg/kg'),
  ('Cc1cc(C)c(C(=O)/N=C2\NC3(CCCCO3)CCS2)c(C)c1 (configuration not stated)', 'Mus musculus', '> 200 mg/kg');

Cited source: ChEMBL document CHEMBL3244273
